Attribution: paper PMC10628234

- SUBJECT_OF_TEST: TS-CbFic2 (Coxiella burnetii, UniProt Q83DB6 1-378)
- TEST_METHOD_NOTES: fluorescence anisotropy; Hill 1.082
- REPORTED_CONDITIONS: protein: recombinant; tags: N-terminal Twin-Strep + EK site (G-H-M-TS-G-A-EK-H-M); label: 5'-FITC on one strand
READOUT_LABEL: pKd
Quick note: pKd means taking -log10 of the concentration in moles per liter.

Record 5'-FITC 20 bp dsDNA (40% GC) (dsDNA) DNA 1: AGTTTAGTGCGCTAATCTGA DNA 2: TCAGATTAGCGCACTAAACT . Reported pKd: 6.94
